Entries and their growth values follow.
Tested on: NCI-H522 lung
Test: NCI-60 one-dose screen, 48 h (100 = growth as untreated, 0 = no growth, -100 = all killed)
Settings: 10 µM unless noted
This is part of a sample that, as a whole, favours compounds with a hit. Of some 83,000 tested, about 20% had one in any assay.
Report only the number, with the unit % understood.

// below: answered compounds
CS(=O)(=O)Nc1cc(-c2ccc3ncnc(Nc4ccc5[nH]ncc5c4)c3c2)cnc1Cl 60.6
O=S(=O)(NCCNc1nccc(-c2c(-c3ccc(F)c(O)c3)nc3sccn23)n1)c1ccccc1 59.3
CCCCCCCCCCCCCCCC(=O)OC[C@@]1(O)C[C@@]23CC[C@@H]4C(C)(C)[C@H](O)CC[C@@]4(C)[C@@H]2CC[C@H]1C3 91.2
CN1CCN(C(=O)[C@]2(C)CC[C@]3(C)CC[C@]4(C)C(=CC(=O)[C@@H]5[C@@]6(C)CCC(=O)NC(C)(C)[C@@H]6CC[C@]54C)[C@@H]3C2)CC1 90.6

Then there is this compound:
Quick one: growth for NC(=S)N/N=C(/c1ccccc1)c1ccccc1N ?
88.9
